Method: Blood bioavailability / pharmacokinetics of avasimibe by LC-MS
Assay type: in vivo, nude mice
Condition Parameters: nude, mouse, whole blood; oral avasimibe 15 mg/kg; read-out: area under curve (AUC) of avasimibe
Quantity Name: AUC (ng·h/mL)

>>> df
                                   molecule  observed_result
0  CC(C)c1cc(C(C)C)c(CC(=O)NS(=O)(=O)Oc2c(C(C)C)cccc2C(C)C)c(C(C)C)c1 [avasimibe]             3250
